A compilation of published IC50 results with Carbonic anhydrase 1 (Homo sapiens, UniProt P00915).
Quick reminder: number only, in nM, skip the unit.

Some solved entries appear below for comparison.
>  <smiles-data>
NS(=O)(=O)c1ccc(N=C2C(=O)Nc3ccccc32)cc1

>  <readout-units>
nM

>  <IC50>
65

$$$$
>  <smiles-data>
COc1cc(-c2cc(-c3ccc(N)cc3)nn2C(N)=S)cc(OC)c1OC

>  <readout-units>
nM

>  <IC50>
12.2

$$$$

Next up:
Look up IC50: CCCCCCCCn1c2ccccc2c2cc(/N=C/c3ccc(O)c(O)c3)ccc21
32100
